Quick note: these are Ki numbers for system: D(2) dopamine receptor (Rattus norvegicus)
Sequence (P61169 whole entry): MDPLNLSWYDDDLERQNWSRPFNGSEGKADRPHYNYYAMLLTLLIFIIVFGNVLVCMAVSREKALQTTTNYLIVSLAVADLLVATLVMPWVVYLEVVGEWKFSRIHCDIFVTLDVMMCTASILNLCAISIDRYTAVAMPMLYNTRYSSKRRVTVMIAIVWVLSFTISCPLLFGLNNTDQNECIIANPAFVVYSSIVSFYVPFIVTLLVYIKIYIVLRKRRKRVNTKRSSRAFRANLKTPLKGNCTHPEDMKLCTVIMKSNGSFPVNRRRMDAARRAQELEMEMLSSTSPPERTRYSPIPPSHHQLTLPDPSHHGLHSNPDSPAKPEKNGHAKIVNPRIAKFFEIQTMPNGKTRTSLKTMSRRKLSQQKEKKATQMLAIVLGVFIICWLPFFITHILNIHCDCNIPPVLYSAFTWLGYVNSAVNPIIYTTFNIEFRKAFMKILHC
Could you give me the number in nM? Just the number is fine.

Some compounds with known Ki results, for comparison:
OC1(c2ccc(Cl)cc2)CCN(Cc2c[nH]c3ccccc23)CC1 = 6.31
N#Cc1ccc2c(c1)[C@H]1CN(CCCCNC(=O)c3ccc(-c4ccccc4)cc3)C[C@@H]1CO2 = 50.1

Now for another entry.
# query: Ki | item CCCN(CCC)C1CCc2cc(CS(=O)(=O)c3ccc(OC)cc3)ccc2C1 (stereo not drawn) | system: D(2) dopamine receptor (Rattus norvegicus)
79.4

----------
target: D(2) dopamine receptor (Homo sapiens, UniProt P14416)
Sequence (P14416 whole entry): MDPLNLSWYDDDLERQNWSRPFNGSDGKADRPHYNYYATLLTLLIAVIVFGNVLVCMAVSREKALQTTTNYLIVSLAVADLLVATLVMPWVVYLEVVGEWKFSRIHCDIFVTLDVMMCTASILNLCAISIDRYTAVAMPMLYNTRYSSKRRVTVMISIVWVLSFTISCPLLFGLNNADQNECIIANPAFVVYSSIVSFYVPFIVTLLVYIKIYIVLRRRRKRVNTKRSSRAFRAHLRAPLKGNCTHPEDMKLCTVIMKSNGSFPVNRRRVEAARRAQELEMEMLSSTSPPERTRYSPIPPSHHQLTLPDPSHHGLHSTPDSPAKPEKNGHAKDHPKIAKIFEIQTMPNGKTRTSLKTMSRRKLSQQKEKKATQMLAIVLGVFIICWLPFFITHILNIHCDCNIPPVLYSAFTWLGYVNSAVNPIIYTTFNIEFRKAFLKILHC
measurement_kind: pKi
pKi (log units): -log10 of the concentration in mol/L.

Find the recorded pKi belonging to "N#Cc1ccc2c(c1)[C@H]1CN(CCCCNC(=O)c3ccc(-c4ccccc4)cc3)C[C@@H]1CO2" and report it.
7.28

----------
Quick note: these are Ki numbers for system: 5-hydroxytryptamine receptor 2B (Homo sapiens, UniProt P41595)
Sequence (P41595 whole entry): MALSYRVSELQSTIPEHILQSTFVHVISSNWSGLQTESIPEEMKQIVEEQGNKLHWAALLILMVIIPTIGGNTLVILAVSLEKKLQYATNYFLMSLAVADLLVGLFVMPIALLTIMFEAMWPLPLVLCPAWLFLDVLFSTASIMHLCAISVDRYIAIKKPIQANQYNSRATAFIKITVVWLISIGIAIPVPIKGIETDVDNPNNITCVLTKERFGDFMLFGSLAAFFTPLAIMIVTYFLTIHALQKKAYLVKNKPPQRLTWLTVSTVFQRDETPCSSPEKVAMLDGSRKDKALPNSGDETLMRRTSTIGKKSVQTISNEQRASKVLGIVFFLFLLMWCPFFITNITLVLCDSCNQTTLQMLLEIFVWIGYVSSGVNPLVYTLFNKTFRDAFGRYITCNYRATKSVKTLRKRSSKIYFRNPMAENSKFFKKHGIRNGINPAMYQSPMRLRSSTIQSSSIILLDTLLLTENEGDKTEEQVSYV

CCCN(CCC)C1CCc2cc(CS(=O)(=O)c3ccc(OC)cc3)ccc2C1 (stereo not drawn) [GR218231] = 1000 nM
OC1(c2ccc(Cl)cc2)CCN(Cc2c[nH]c3ccccc23)CC1 [L741,626] = 631 nM

Now for another entry.
Find the recorded Ki belonging to N#Cc1ccc2c(c1)[C@H]1CN(CCCCNC(=O)c3ccc(-c4ccccc4)cc3)C[C@@H]1CO2 [S33084] and report it.
158 nM

----------
target: D(1B) dopamine receptor (Homo sapiens, UniProt P21918)
Sequence (P21918 whole entry): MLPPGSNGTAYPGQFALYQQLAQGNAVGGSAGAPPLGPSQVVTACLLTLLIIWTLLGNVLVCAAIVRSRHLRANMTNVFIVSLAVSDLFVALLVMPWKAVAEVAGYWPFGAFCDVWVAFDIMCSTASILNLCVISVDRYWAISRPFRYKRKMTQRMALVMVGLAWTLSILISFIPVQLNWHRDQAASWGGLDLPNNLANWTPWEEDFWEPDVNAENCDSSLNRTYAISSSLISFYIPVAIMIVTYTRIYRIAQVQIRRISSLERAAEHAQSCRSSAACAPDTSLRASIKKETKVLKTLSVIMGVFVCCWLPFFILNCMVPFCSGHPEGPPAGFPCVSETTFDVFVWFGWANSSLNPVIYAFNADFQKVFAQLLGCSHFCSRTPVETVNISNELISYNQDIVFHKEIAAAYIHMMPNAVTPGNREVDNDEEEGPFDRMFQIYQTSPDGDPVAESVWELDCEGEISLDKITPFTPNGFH
measurement_kind: pKi
pKi (log units): -log10 of the concentration in mol/L.

# query: pKi | item OC1(c2ccc(Cl)cc2)CCN(Cc2c[nH]c3ccccc23)CC1 [L741,626] | system: D(1B) dopamine receptor (Homo sapiens, UniProt P21918)
6.20

# query: pKi | item CCCN(CCC)C1CCc2cc(CS(=O)(=O)c3ccc(OC)cc3)ccc2C1 (stereo not drawn) [GR218231] | system: D(1B) dopamine receptor (Homo sapiens, UniProt P21918)
6.00

# query: pKi | item N#Cc1ccc2c(c1)[C@H]1CN(CCCCNC(=O)c3ccc(-c4ccccc4)cc3)C[C@@H]1CO2 [S33084] | system: D(1B) dopamine receptor (Homo sapiens, UniProt P21918)
5.90

----------
target: 5-hydroxytryptamine receptor 1B (Cavia porcellus, UniProt O08892)
Sequence (O08892 whole entry): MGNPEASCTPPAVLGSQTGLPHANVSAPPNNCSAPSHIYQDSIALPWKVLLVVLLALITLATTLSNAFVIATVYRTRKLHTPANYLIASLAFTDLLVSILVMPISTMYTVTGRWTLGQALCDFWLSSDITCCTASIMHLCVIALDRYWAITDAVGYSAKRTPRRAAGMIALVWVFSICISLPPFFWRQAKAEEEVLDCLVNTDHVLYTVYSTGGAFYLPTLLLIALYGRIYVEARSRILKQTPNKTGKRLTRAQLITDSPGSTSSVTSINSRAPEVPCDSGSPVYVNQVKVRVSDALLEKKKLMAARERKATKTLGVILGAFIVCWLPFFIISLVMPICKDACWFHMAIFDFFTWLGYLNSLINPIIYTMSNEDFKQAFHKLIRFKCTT
measurement_kind: pKi
pKi (log units): -log10 of the concentration in mol/L.

Find the recorded pKi belonging to "N#Cc1ccc2c(c1)[C@H]1CN(CCCCNC(=O)c3ccc(-c4ccccc4)cc3)C[C@@H]1CO2" and report it.
6.00

----------
Quick note: these are Ki numbers for system: 5-hydroxytryptamine receptor 1B (Homo sapiens, UniProt P28222)
Sequence (P28222 whole entry): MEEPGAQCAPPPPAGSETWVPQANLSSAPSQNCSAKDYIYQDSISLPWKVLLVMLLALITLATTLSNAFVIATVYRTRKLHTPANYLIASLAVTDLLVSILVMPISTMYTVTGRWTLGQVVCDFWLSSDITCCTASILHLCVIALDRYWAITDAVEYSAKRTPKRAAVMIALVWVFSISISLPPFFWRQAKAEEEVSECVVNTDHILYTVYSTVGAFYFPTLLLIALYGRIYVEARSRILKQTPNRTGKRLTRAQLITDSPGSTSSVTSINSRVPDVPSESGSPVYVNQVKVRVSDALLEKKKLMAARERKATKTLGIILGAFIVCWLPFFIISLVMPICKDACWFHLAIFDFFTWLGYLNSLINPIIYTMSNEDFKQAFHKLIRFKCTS
Could you give me the number in nM? Just the number is fine.

OC1(c2ccc(Cl)cc2)CCN(Cc2c[nH]c3ccccc23)CC1 = 1000

Now for another entry.
Find the recorded Ki belonging to "N#Cc1ccc2c(c1)[C@H]1CN(CCCCNC(=O)c3ccc(-c4ccccc4)cc3)C[C@@H]1CO2" and report it.
794

----------
Quick note: these are pKi numbers for system: Sigma non-opioid intracellular receptor 1 (Cavia porcellus, UniProt Q60492)
Sequence (Q60492 whole entry): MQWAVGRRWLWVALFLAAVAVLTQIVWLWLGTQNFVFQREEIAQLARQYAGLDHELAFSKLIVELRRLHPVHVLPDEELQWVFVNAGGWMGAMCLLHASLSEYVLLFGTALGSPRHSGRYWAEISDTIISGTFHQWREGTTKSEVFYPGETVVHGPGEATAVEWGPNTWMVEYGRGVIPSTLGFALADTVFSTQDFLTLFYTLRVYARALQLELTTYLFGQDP
pKi (log units): -log10 of the concentration in mol/L.

N#Cc1ccc2c(c1)[C@H]1CN(CCCCNC(=O)c3ccc(-c4ccccc4)cc3)C[C@@H]1CO2 [S33084] = 6.00

Now for another entry.
# query: pKi | item CCCN(CCC)C1CCc2cc(CS(=O)(=O)c3ccc(OC)cc3)ccc2C1 (configuration not stated) [GR218231] | system: Sigma non-opioid intracellular receptor 1 (Cavia porcellus, UniProt Q60492)
6.80

----------
molecular target: 5-hydroxytryptamine receptor 2A (Homo sapiens, UniProt P28223)
Sequence (P28223 whole entry): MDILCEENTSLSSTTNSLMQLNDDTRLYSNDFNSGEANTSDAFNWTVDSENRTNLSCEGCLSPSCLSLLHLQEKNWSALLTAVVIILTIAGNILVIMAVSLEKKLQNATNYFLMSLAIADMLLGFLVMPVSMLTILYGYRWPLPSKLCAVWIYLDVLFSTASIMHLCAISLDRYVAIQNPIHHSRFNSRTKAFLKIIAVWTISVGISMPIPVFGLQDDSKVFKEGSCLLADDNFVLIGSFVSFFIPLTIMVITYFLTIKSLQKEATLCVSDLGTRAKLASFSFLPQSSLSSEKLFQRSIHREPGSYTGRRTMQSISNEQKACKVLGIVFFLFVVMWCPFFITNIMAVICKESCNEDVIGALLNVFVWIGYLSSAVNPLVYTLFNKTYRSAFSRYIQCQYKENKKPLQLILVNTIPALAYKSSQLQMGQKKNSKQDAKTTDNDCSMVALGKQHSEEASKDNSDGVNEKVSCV
measurement_kind: pKi
pKi (log units): -log10 of the concentration in mol/L.

# query: pKi | item "N#Cc1ccc2c(c1)[C@H]1CN(CCCCNC(=O)c3ccc(-c4ccccc4)cc3)C[C@@H]1CO2" | system: 5-hydroxytryptamine receptor 2A (Homo sapiens, UniProt P28223)
6.00

----------
Target protein (sequence): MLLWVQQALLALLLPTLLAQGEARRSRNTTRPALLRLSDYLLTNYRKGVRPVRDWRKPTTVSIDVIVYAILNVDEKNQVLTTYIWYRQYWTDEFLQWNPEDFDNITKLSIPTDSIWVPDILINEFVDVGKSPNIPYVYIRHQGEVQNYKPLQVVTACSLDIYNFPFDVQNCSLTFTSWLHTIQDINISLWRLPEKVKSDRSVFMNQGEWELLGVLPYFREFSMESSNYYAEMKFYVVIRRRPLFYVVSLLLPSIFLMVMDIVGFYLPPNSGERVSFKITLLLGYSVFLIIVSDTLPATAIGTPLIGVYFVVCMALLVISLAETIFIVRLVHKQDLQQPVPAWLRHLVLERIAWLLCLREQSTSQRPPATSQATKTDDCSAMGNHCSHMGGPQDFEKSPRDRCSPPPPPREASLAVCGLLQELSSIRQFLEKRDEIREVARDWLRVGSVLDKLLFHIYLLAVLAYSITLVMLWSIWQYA
measurement_kind: pKi
pKi (log units): -log10 of the concentration in mol/L.

Find the recorded pKi belonging to "N#Cc1ccc2c(c1)[C@H]1CN(CCCCNC(=O)c3ccc(-c4ccccc4)cc3)C[C@@H]1CO2" and report it.
6.00

The values you see were collected from BindingDB's records for PubMed 10869410.
